Where these numbers come from: ChEMBL document CHEMBL1926588

- EXPERIMENT SUMMARY: Cytotoxicity against human 184B5 cells after 72 hrs by MTT assay
- Assay type: cell-based
- RUN PARAMETERS: 184B5 cells
READOUT LABEL: GI50 at 72 h (µM)
Numbers only, in µM.

Some solved entries appear below for comparison.
CSc1ccc(CNc2nc([SeH])nc3ccccc23)cc1	6.84
C[Se]c1nc(NCc2ccccc2)c2ccccc2n1	3.72
COc1ccc(CNc2nc(SC)nc3ncccc23)cc1	34.2
CSc1nc(NCc2ccccc2)c2cccnc2n1	49
CSc1nc(NCc2ccc([Se]C)cc2)c2ccccc2n1	70.3

For each entry beneath this line, provide reported GI50 at 72 h.
1. [Se]=C=NCc1ccccc1 [BENZYLISOSELENOCYANATE]
2. [SeH]c1nc([SeH])c2cccnc2n1
3. CCCCC[Se]c1nc([Se]CCCCC)c2cccnc2n1
4. CSc1nc(NCc2ccccc2)c2ccccc2n1
5. Nc1nc([SeH])nc2ccccc12

15.5
0.71
52.8
28.9
0.69

For each entry beneath this line, provide reported GI50 at 72 h.
1. COc1ccc(CNc2nc(SC)nc3ccccc23)cc1
2. CSc1nc(NCCCc2ccccc2)c2ccccc2n1
3. CSc1ccc(CNc2nc(SC)nc3ccccc23)cc1
4. Sc1nc(NCc2ccccc2)c2ccccc2n1
5. CCCCC[Se]c1nc(N)c2ccccc2n1

[85.6, 6.77, 22, 49.6, 15.3]

For each entry beneath this line, provide reported GI50 at 72 h.
1. CCCCC[Se]c1nc([Se]CCCCC)c2ccccc2n1
2. C[Se]c1nc([Se]C)c2ccccc2n1
3. COc1ccc(CNc2nc([Se]C)nc3ccccc23)cc1

1: 71.3; 2: 71.5; 3: 75.6

For each entry beneath this line, provide reported GI50 at 72 h.
1. Nc1nc([SeH])nc2ncccc12
2. CSc1nc(NCCCCc2ccccc2)c2ccccc2n1
3. [SeH]c1nc([SeH])c2ccccc2n1
4. CSc1nc(NCCCCCO)c2ccccc2n1
5. COc1ccc(CNc2nc(S)nc3ccccc23)cc1

5.2
28.5
0.49
49.9
7.83
